- Tested on: Bacillus cereus
- TEST: Antibacterial activity against Bacillus cereus
- Format: functional
Documented MIC across a set of molecules
READOUT_KIND: MIC (µg/mL)

In [3]: df
Out[3]:
                           molecular_string     assay_target  readout_kind  observed_measurement
0  CCCCCCCCCn1c(=O)c2c(-c3ccccc3)nc(-c3ccc[n+](Cc4ccccc4)c3)n2c2ccccc21.[Cl-]  Bacillus cereus           MIC                  12.5
1  CCCCCCCCCn1c(=O)c2c(-c3ccccc3)nc(-c3ccc[n+](CCCCCCCCC)c3)n2c2ccccc21.[I-]  Bacillus cereus           MIC                   7.8
2   O=C1CC(c2ccccc2)=NN1c1nc2ccccc2[nH]c1=O  Bacillus cereus           MIC                   7.8
3  CCCCCCCCC[n+]1cccc(-c2nc(-c3ccccc3)c3c(=O)n(CCCCCC)c4ccccc4n23)c1.[I-]  Bacillus cereus           MIC                  0.78

Where these numbers come from: ChEMBL document CHEMBL5113380
